Non-standard residues stand in square brackets, D forms with d. Residues, ends and D or L forms follow the SMILES beside them. *: point of attachment. NMeF = CN[CH](Cc1ccccc1)C(=O)O; NMeV = CN[CH](C(=O)O)C(C)C; Boc = CC(C)(C)OC(=O)*
A set of compounds tested on HCT-15, with measured GI50:

Recorded results for 4 compounds are shown here.
NC(=O)C(=Cn1c(=S)[nH]c2ccc([N+](=O)[O-])cc21)C(N)=O: > 100 µM
CN(C)S(=O)(=O)c1ccc(Nc2ccc(O)c3c2C(=O)c2c([N+](=O)[O-])ccc(O)c2C3=O)cc1: > 100 µM
N[C@@H](CCC(=O)NC(Cc1ccccc1)C(=O)NCP(=O)(O)O)C(=O)O (stereo not given in full): > 100 µM
CCN(CC)C(=S)S [DITIOCARB SODIUM]: > 62.5 µM

Then this compound:
Value (GI50, HCT-15) for record CC(C)C(NC(=O)OC(C)(C)C)C(=O)N(C)C(Cc1ccccc1)C(=O)N(C)C(C(=O)N(C)C(C(=O)O)C(C)C)C(C)C (stereo not given) (Boc-V[NMeF][NMeV][NMeV]-OH; configuration not given here) = > 100 µM
